result type: log10 Koa
Give bare numbers.

[[record]]
molecule = "Clc1ccc(Cl)c(Cl)c1Cl"
result_type = "log10 Koa"
meas_value = 5.64


For every item in the list below, what is its measured log10 Koa?
1. Clc1cc(Cl)c2cccc(Cl)c2c1Cl
2. ClC1=C(Cl)[C@]2(Cl)[C@@H]3[C@@H]4C[C@@H]([C@H]5O[C@@H]45)[C@@H]3[C@@]1(Cl)C2(Cl)Cl (single isomer, unassigned)
3. Clc1ccc(Cl)c2c(Cl)ccc(Cl)c12
4. Clc1cc(Cl)c2c(Cl)ccc(Cl)c2c1
5. CC(C)c1ccccc1
6. ClC(Br)Br

8.41
8.52
8.45
8.28
3.98
3.59

Consider the molecule `c1ccc2c(c1)-c1cccc3cccc-2c13` and give its recorded log10 Koa.
8.88

###

Assign a class from recorded log10 vapour pressure (mmHg); defined classes: bucket 1: < -0.1; bucket 2: ≥ -0.1 and < 1; bucket 3: ≥ 1

Please review the entries below; each comes with its answer.
[[record]]
molecule = "O=Cc1ccco1"
label = "bucket 2"

[[record]]
molecule = "OC1CCCCC1"
label = "bucket 2"

[[record]]
molecule = "CCC1CCCCC1"
label = "bucket 3"

[[record]]
molecule = "CC(C)(C)C(=O)OC(=O)C(C)(C)C"
label = "bucket 1"

[[record]]
molecule = "Cc1ccc(N(C)C)cc1"
label = "bucket 1"


Which class holds `CCOC(=O)C(Cl)Cl` ?
bucket 2

Which class holds `CCI` ?
bucket 3

Which class holds `CC(C)CCOC(=O)CC(C)C` ?
bucket 2

Which class holds CCOP(=S)(NC(C)C)Oc1ccccc1C(=O)OC(C)C (stereo not drawn) ?
bucket 1

Which class holds `C#CCCCCCC` ?
bucket 3

Which class holds CCCC(O)C(C)C (stereo not drawn) ?
bucket 2

Which class holds `Cc1ccc(O)c(C(C)(C)C)c1` ?
bucket 1

Which class holds `CCCCOCCO` ?
bucket 2

###

Assign a class from recorded log10 vapour pressure (mmHg); defined classes: low = under -3, middle = from -3 up to 0.1, high = 0.1 and over

Which class holds `CCOCCOCCO` ?
middle

###

Assign Criterion met to entries whose boiling point meets or exceeds 200 °C; assign Criterion not met to the rest.

[[record]]
compound = "c1ccc(Cc2ccccc2)cc1"
label = "Criterion met"

[[record]]
compound = "C[Si](C)(C)O[Si](C)(C)O[Si](C)(C)O[Si](C)(C)O[Si](C)(C)O[Si](C)(C)O[Si](C)(C)C"
label = "Criterion met"

[[record]]
compound = "CCCOCC(C)O (centres undefined)"
label = "Criterion not met"

[[record]]
compound = "ClCc1cc(Cl)c(Cl)cc1Cl"
label = "Criterion met"

[[record]]
compound = "CC(=O)OCC1CCCO1 (centres undefined)"
label = "Criterion not met"


Item `CC(C)CCCC(C)C` with boiling point of 200 °C or above?
Criterion not met

Item `C1COCOC1` with boiling point of 200 °C or above?
Criterion not met

Item CCCC(C)I (centres undefined) with boiling point of 200 °C or above?
Criterion not met

Item `N#Cc1ccncc1` with boiling point of 200 °C or above?
Criterion met

###

Label y when boiling point < 100 °C; otherwise n.

Please review the entries below; each comes with its answer.
[[record]]
compound = "Brc1cccnc1"
label = "n"

[[record]]
compound = "C#CCCC#C"
label = "y"

[[record]]
compound = "FC(F)=C(F)C(F)=C(F)F"
label = "y"

[[record]]
compound = "CCCCN1CCOCC1"
label = "n"

[[record]]
compound = "CC(C)CCN"
label = "y"

[[record]]
compound = "CC1CCCC(C)C1C (stereo not given)"
label = "n"

[[record]]
compound = "C=C(Cl)CC"
label = "y"

[[record]]
compound = "NCC1CCCCC1"
label = "n"

[[record]]
compound = "C1=CCC(c2ccncc2)CC1 (stereo not given)"
label = "n"


Could you please tell me whether boiling point recorded for `FSC(F)(F)F` is less than 100 °C?
n

###

Task for the reader: assign each of the following molecules its reported log10 vapour pressure (mmHg).
Answers are plain numbers.

[[record]]
molecule = "O=C(OCc1ccccc1)c1sc(Cl)nc1C(F)(F)F"
result_type = "log10 vapour pressure (mmHg)"
meas_value = -6.53

[[record]]
molecule = "CCOP(=O)(SC(C)CC)SC(C)CC (stereo unspecified)"
result_type = "log10 vapour pressure (mmHg)"
meas_value = -3.05

[[record]]
molecule = "CC(=O)C=CC1=C(C)CCCC1(C)C"
result_type = "log10 vapour pressure (mmHg)"
meas_value = -1.27


For every item in the list below, what is its measured log10 vapour pressure (mmHg)?
1. C=CCCCCCCCCCCC
2. O=P(O)(O)CN(CP(=O)(O)O)CP(=O)(O)O
3. CC(C)(C)CCC(C)(C)C
4. OCCCCCO
5. CCOCCOC(C)=O

-1.2
-11.2
0.942
-2.41
0.369

For every item in the list below, what is its measured log10 vapour pressure (mmHg)?
1. c1ccc2cnccc2c1
2. CS/C(C)=N/OC(=O)N(C)SN(C)C(=O)O/N=C(\C)SC
3. N#Cc1cccnc1
4. CCCCCS
5. CC1=C(C(=O)Nc2ccccc2)SCCO1
6. CCCCCCCCCCCC#N
7. N#CCCN
8. CCCN(CCC)c1c([N+](=O)[O-])cc(C(C)C)cc1[N+](=O)[O-]

1: -1.16; 2: -4.15; 3: -0.529; 4: 1.14; 5: -6.82; 6: -2.63; 7: -0.0655; 8: -4.52

###

result type: melting point (°C)
Give bare numbers, in °C.

Recorded melting point, per entry:
[[record]]
sample_smiles = "Clc1cccc2c1Oc1c(Cl)c(Cl)c(Cl)c(Cl)c1O2"
readout_unit = "°C"
meas_value = 220

[[record]]
sample_smiles = "O=C1c2ccccc2C(=O)c2c(NCCO)cccc21"
readout_unit = "°C"
meas_value = 168

[[record]]
sample_smiles = "O=C(O)/C=C/C=C/C(=O)O"
readout_unit = "°C"
meas_value = 301

[[record]]
sample_smiles = "O=c1c2ccccc2oc2ccccc12"
readout_unit = "°C"
meas_value = 174

[[record]]
sample_smiles = "Clc1ccc2ccccc2c1Cl"
readout_unit = "°C"
meas_value = 36


For every item in the list below, what is its measured melting point?
1. CCCB(CCC)CCC
2. CCCCl
3. CCCCCCCCOC(=O)CCCCCCC
4. O=c1c(-c2ccccc2)c1-c1ccccc1
5. ClCC=Cc1ccccc1
6. O=C(O)/C=C\C(=O)O
7. CCc1nc(CC)nc(NS(=O)(=O)c2ccc(N)cc2)n1
8. CN1CC[C@]23C(=O)C[C@H]4C(=CCO[C@H]5CC(=O)N(c6c(O)cccc62)[C@H]3[C@H]54)C1

-56
-123
-18.1
119
-19
130
187
282

For every item in the list below, what is its measured melting point?
1. CCCCCCCCCCCCCCCCC
2. O=C(O)COc1ccccc1C(=O)O

1. 22
2. 191

###

Task for the reader: assign each of the following molecules its reported melting point.
Numbers only, in °C.

Recorded melting point, per entry:
[[record]]
molecule = "Nc1ccc(/N=N/c2ccc(N)cc2)cc1"
readout_unit = "°C"
meas_value = 250

[[record]]
molecule = "O=C(O)[C@@H](S)[C@@H](S)C(=O)O"
readout_unit = "°C"
meas_value = 193

[[record]]
molecule = "CN(C)c1ccccc1N(C)C"
readout_unit = "°C"
meas_value = 8.9

[[record]]
molecule = "CC[C@@]12CCCN(CCc3c([nH]c4ccccc34)CC1)C2"
readout_unit = "°C"
meas_value = 146

[[record]]
molecule = "O=C(Nc1ccc(Br)cc1)c1cc(Br)cc(Br)c1O"
readout_unit = "°C"
meas_value = 227


For every item in the list below, what is its measured melting point?
1. Cc1ccc(Br)cc1N
2. Cc1cc(Cl)ccc1OCCCC(=O)O
3. CCCCCCCCCCCCCC(=O)OCC
4. c1ccc(-c2oc(-c3ccccc3)c(-c3ccccc3)c2-c2ccccc2)cc1
5. O=C(O)C(F)(F)C(F)(F)C(F)(F)C(F)(F)C(=O)O
6. ClC1=C(Cl)C(Cl)(C2(Cl)C(Cl)=C(Cl)C(Cl)=C2Cl)C(Cl)=C1Cl

1: 33; 2: 100; 3: 12.3; 4: 175; 5: 134; 6: 122

###

Details: fish
result type: log10 BCF
Numbers only.

Recorded log10 BCF, per entry:
[[record]]
compound = "ClC(Cl)(Cl)C(Cl)(Cl)Cl"
meas_value = 2.71

[[record]]
compound = "COc1c(Cl)cc(Cl)c(Cl)c1Cl"
meas_value = 3.34

[[record]]
compound = "CC(O)COCC(C)O (configuration not stated)"
meas_value = 0.66


For every item in the list below, what is its measured log10 BCF?
1. CCCCCCc1ccc(-c2ccc(C#N)cc2)cc1
2. Brc1ccc(Oc2c(Br)cc(Br)cc2Br)c(Br)c1

1: 3.52; 2: 6.36

For every item in the list below, what is its measured log10 BCF?
1. COc1ccc(C(=O)c2ccccc2)c(O)c1
2. COC(=O)C(C)Oc1ccc(Oc2ncc(C(F)(F)F)cc2Cl)cc1 (configuration not stated)

[1.97, 1.23]
